These entries and their values trace back to patent US11142525B2.

target entity: human full-length recombinant HPK1 (Homo sapiens (Human), UniProt Q92918)
Sequence (Q92918 whole entry): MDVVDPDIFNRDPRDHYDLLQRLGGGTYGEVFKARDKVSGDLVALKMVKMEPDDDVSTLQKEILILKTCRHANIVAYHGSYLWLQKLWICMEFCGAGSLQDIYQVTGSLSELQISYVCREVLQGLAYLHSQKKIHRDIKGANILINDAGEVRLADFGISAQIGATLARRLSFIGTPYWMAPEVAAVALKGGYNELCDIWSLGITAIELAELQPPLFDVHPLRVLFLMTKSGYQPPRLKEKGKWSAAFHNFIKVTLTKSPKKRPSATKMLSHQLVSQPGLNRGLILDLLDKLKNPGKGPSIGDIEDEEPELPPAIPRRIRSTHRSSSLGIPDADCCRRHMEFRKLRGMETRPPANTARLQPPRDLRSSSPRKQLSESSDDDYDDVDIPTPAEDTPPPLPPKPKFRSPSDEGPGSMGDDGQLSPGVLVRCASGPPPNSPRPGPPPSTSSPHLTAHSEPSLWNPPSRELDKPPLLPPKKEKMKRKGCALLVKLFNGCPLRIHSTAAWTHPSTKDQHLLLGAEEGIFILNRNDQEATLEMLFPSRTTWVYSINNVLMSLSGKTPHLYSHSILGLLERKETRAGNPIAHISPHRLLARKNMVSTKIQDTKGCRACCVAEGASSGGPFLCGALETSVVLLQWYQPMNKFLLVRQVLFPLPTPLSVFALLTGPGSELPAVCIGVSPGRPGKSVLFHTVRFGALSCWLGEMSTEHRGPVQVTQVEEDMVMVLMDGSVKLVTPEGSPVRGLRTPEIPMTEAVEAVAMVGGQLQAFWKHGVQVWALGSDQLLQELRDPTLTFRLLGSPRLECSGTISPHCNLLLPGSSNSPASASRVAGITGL
assay details: HPK1 biochemical enzyme assay, microfluidic mobility shift assay (MSA)
experimental conditions: HPK1 mobility shift assay; read-out: HPK1 Enzyme Assay_Ki
observation type: log10(Ki) (log10 of the value in nM)
The common logarithm of Ki in nM is what is listed.

Field request: log10(Ki) | item: Cc1nnc(-c2cccc(N3Cc4c(cc(N5CCC[C@H]5C)nc4CN)C3=O)n2)n1C(C)C [Example 156] -0.72

Field request: log10(Ki) | item: CC[C@@H](CO)n1cnnc1-c1cccc(N2Cc3c(cc(C4(C)CC4)nc3CNC)C2=O)n1 (single isomer, unassigned) [Example 184] 0.06

Field request: log10(Ki) | item: CNCc1nc(C2(C)CC2)cc2c1CN(c1ccc(F)c(-c3nncn3C(C)C)n1)C2=O [Example 83] 1.55

Field request: log10(Ki) | item: CCC(CC)n1cnnc1-c1cccc(N2Cc3c(cc(N(CC)CC)nc3CN)C2=O)n1 [Example 122] -0.39

Field request: log10(Ki) | item: CNCc1nc(C2(C)CC2)cc2c1CN(c1cccc(-c3nnc(C)n3C3CCC3)n1)C2=O [Example 187] 1.41

Field request: log10(Ki) | item: CCN(c1cc2c(c(CNC)n1)CN(c1cccc(-c3nncn3C(C)C)n1)C2=O)C(C)C [Example 70] -0.80

Field request: log10(Ki) | item: CC(C)n1cnnc1-c1cccc(N2Cc3c(cc(N4CCC[C@H]4C)nc3CN)C2=O)n1 [Example 107] -1.40

Field request: log10(Ki) | item: CCn1cnnc1-c1cccc(N2Cc3c(cc(N4CCC[C@@H]4C)nc3CNC)C2=O)n1 [Example 114] -0.92

Field request: log10(Ki) | item: CCc1nnc(-c2cccc(N3Cc4c(cc(N5CCC[C@H]5C)nc4CN)C3=O)n2)n1CC [Example 185] -0.10

Field request: log10(Ki) | item: CCn1cnnc1-c1cccc(N2Cc3c(cc(N4CCC4)nc3CNC)C2=O)n1 [Example 92] -0.37

Field request: log10(Ki) | item: CCCn1c(C)nnc1-c1cccc(N2Cc3c(cc(N(C)CC)nc3CN)C2=O)n1 [Example 161] -0.17

Field request: log10(Ki) | item: CCN(c1cc2c(c(CN)n1)CN(c1cccc(-c3nncn3CC)n1)C2=O)C(C)C [Example 141] -0.13

Field request: log10(Ki) | item: CCCn1cnnc1-c1cccc(N2Cc3c(cc(N4[C@H](C)CC[C@H]4C)nc3CN)C2=O)n1 [Example 136] -0.14

Field request: log10(Ki) | item: CCn1c(C)nnc1-c1cccc(N2Cc3c(cc(N4[C@H](C)CC[C@H]4C)nc3CNC)C2=O)n1 [Example 111] 0.00

Field request: log10(Ki) | item: CCCn1c(C)nnc1-c1cccc(N2Cc3c(cc(C4(C)CC4)nc3CN)C2=O)n1 [Example 128] -0.20

Field request: log10(Ki) | item: CCn1c(C)nnc1-c1cccc(N2Cc3c(cc(N(C)C(C)C)nc3CN)C2=O)n1 [Example 158] -0.42

----------
Ki overview
target entity: human full-length recombinant HPK1 (Homo sapiens (Human))
assay details: HPK1 biochemical enzyme assay, microfluidic mobility shift assay (MSA)
experimental conditions: HPK1 mobility shift assay; read-out: HPK1 Enzyme Assay_Ki
Write it as a number; the unit nM goes unstated.

Example results:
CCN(c1cc2c(c(CN)n1)CN(c1cccc(-c3nnc(C)n3CC)n1)C2=O)C(C)C; 0.7
CCC(CC)n1cnnc1-c1cccc(N2Cc3c(cc(N4CCC[C@H]4C)nc3CN)C2=O)n1; 0.09
CCCn1c(C)nnc1-c1cccc(N2Cc3c(cc(N(C)CC)nc3CNC)C2=O)n1; 0.78

Field request: Ki | item: `CNCc1nc(NC(C)C)cc2c1CN(c1cccc(-c3nncn3C(C)C)n1)C2=O` 0.73

Field request: Ki | item: `CCn1cnnc1-c1cccc(N2Cc3c(cc(C4(C)CC4)nc3CNC)C2=O)n1` 0.51

Field request: Ki | item: `CNCc1nc(N2CCCC2(C)C)cc2c1CN(c1cccc(-c3nncn3C(C)C)n1)C2=O` 0.06

Field request: Ki | item: `CCC(CC)n1cnnc1-c1cccc(N2Cc3c(cc(N4CCC[C@@H]4C)nc3CNC)C2=O)n1` 0.09

----------
target entity: human full-length recombinant HPK1 (Homo sapiens (Human), UniProt Q92918)
assay details: HPK1 biochemical enzyme assay, microfluidic mobility shift assay (MSA)
experimental conditions: HPK1 mobility shift assay; read-out: HPK1 Enzyme Assay_Ki
Ki overview
Write it as a number; the unit nM goes unstated.

Example results:
CNCc1nc(N2[C@H](C)CC[C@H]2C)cc2c1CN(c1cccc(N3C(=O)OC[C@@H]3CF)n1)C2=O; 0.89
[2H]C([2H])([2H])C([2H])([2H])N(c1cc2c(c(CNC)n1)CN(c1cccc(-c3nncn3CC)n1)C2=O)C([2H])([2H])C([2H])([2H])[2H]; 0.29
CCC(CC(F)(F)F)n1cnnc1-c1cccc(N2Cc3c(cc(C4(C)CC4)nc3CNC)C2=O)n1 (single isomer, unassigned) [Example 180]; 25.1
CCCn1cnnc1-c1cccc(N2Cc3c(cc(N4[C@H](C)CC[C@H]4C)nc3CNC)C2=O)n1; 0.21
CCn1cnnc1-c1cccc(N2Cc3c(cc(N4[C@H](C)CC[C@H]4C)nc3CNC)C2=O)n1; 0.26

Now turn to the next compound.
Field request: Ki | item: `CCN(CC)c1cc2c(c(CNC)n1)CN(c1cccc(-c3nnc(C)n3CC)n1)C2=O` 0.34

----------
Ki overview
target entity: human full-length recombinant HPK1 (Homo sapiens (Human), UniProt Q92918)
assay details: HPK1 biochemical enzyme assay, microfluidic mobility shift assay (MSA)
experimental conditions: mobility shift assay; 75 μM ATP; Morrison equation, tight-binding competitive inhibition; read-out: HPK1 Enzyme Assay_Ki

CC(C)n1cnnc1-c1cccc(N2Cc3c(cc(N(C)C)nc3CN)C2=O)n1 [Example 12]; 200 pM
CCn1c(C)nnc1-c1cccc(N2Cc3c(cc(N4CCC[C@H]4C)nc3CN)C2=O)n1 [Example 61]; 180 pM
CCC(CC)n1cnnc1-c1cccc(N2Cc3c(cc(C4(C)CC4)nc3CNC)C2=O)n1 [Example 57]; 210 pM
CCN(C)c1cc2c(c(CNC)n1)CN(c1cccc(-c3nncn3C(C)C)n1)C2=O [Example 48]; 140 pM
CNCc1nc(N(C)C)cc2c1CN(c1cccc(N3C(=O)OC[C@@H]3C(F)F)n1)C2=O [Example 37]; 1500 pM

Field request: Ki | item: CCN(CC)c1cc2c(c(CN)n1)CN(c1cccc(-c3nncn3C(C)C)n1)C2=O [Example 38] 380 pM

Field request: Ki | item: CNCc1nc(N2CCC2)cc2c1CN(c1cccc(-c3nncn3C(C)C)n1)C2=O [Example 2] 280 pM

Field request: Ki | item: CCCn1cnnc1-c1cccc(N2Cc3c(cc(N4CCC[C@H]4C)nc3CNC)C2=O)n1 [Example 55] < 60 pM

Field request: Ki | item: CCN(CC)c1cc2c(c(CNC)n1)CN(c1cccc(-c3nncn3CC)n1)C2=O [Example 9] 270 pM

Field request: Ki | item: CCc1nnc(-c2cccc(N3Cc4c(cc(N(C)C(C)C)nc4CNC)C3=O)n2)n1CC [Example 67] 1290 pM

Field request: Ki | item: CNCc1nc(N(C)C)cc2c1CN(c1ccc(F)c(-c3cn[nH]c3C(C)C)n1)C2=O [Example 22] 400 pM

Field request: Ki | item: CNCc1nc(N2CCC2)cc2c1CN(c1cccc(N3C(=O)OC[C@@H]3C)n1)C2=O [Example 33] 280 pM

----------
target entity: human full-length recombinant HPK1 (Homo sapiens (Human))
assay details: HPK1 biochemical enzyme assay, microfluidic mobility shift assay (MSA)
experimental conditions: HPK1 mobility shift assay; read-out: HPK1 Enzyme Assay_Ki
Ki overview
Write it as a number; the unit pM goes unstated.

Example results:
CNCc1nc(C2(C)CC2)cc2c1CN(c1cccc(-c3nncn3C3CCCC3)n1)C2=O [Example 179]; 470
CCCn1cnnc1-c1cccc(N2Cc3c(cc(N(CC)C(C)C)nc3CNC)C2=O)n1 [Example 99]; 830
CCCn1cnnc1-c1cccc(N2Cc3c(cc(N(CC)CC)nc3CNC)C2=O)n1 [Example 80]; 160
CCCn1c(CC)nnc1-c1cccc(N2Cc3c(cc(N4CCC[C@H]4C)nc3CN)C2=O)n1 [Example 186]; 1910
CN(C)c1cc2c(c(CN)n1)CN(c1cccc(N3C(=O)OC[C@@H]3CF)n1)C2=O [Example 174]; 370

Field request: Ki | item: CCC(CC)n1cnnc1-c1cccc(N2Cc3c(cc(C4CC4)nc3CNC)C2=O)n1 [Example 142] 520

Field request: Ki | item: CC[C@@H](CC(F)(F)F)n1cnnc1-c1cccc(N2Cc3c(cc(N(C)C(C)C)nc3CNC)C2=O)n1 (single isomer, unassigned) [Example 72] 4480

Field request: Ki | item: CCCn1cnnc1-c1cccc(N2Cc3c(cc(N4CCC[C@H]4C(F)(F)F)nc3CNC)C2=O)n1 [Example 113] 220

Field request: Ki | item: CCC(CC)n1cnnc1-c1cccc(N2Cc3c(cc(C4(C)CC4)nc3CN)C2=O)n1 [Example 126] 800
